We begin with a simple list: items and their reported %Inh.
tested on: PLK2; details: concentration: 1 μM, replicates: in singlicate; n = 1;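 also: KINOMEscan kinase panel screen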
ENDPOINT: %Inh (%)

INSERT INTO results (compound, assayed_system, recorded_number) VALUES
  ('c1ccc(-c2n[nH]cc2Nc2ccnc3ccccc23)nc1', 'PLK2', 0),
  ('COc1cccc(-c2ccc3c(NC(=O)C4CC4)n[nH]c3n2)c1', 'PLK2', 0),
  ('Cl.c1ccc(-c2ccc3c(Nc4ccc5[nH]ncc5c4)ccnc3c2)nc1', 'PLK2', 0),
  ('CN1CCN(Cc2cccc(-c3ccc4c(Nc5ccc(Oc6ccccc6)cc5)ccnc4c3)c2)CC1', 'PLK2', 0),
  ('COc1cccc(C(=O)Nc2cccc(Oc3ccc4nc(NC(=O)C5CC5)cn4n3)c2)c1', 'PLK2', 0),
  ('Cn1cc(-c2ccc3c(c2)CCN3C(=O)Cc2cccc(F)c2)c2c(N)ncnc21', 'PLK2', 0),
  ('COC(=O)Nc1nc2cc(Oc3ccc(NC(=O)Nc4cc(C(F)(F)F)ccc4F)cn3)ccc2[nH]1.Cl.Cl', 'PLK2', 0),
  ('Cl.c1ccc(-c2ccc3c(Nc4ccc5[nH]ccc5c4)ccnc3c2)nc1', 'PLK2', 0),
  ('Cl.NC(=O)c1cccc(Nc2nccc(Nc3ccc(Oc4c(Cl)cccc4Cl)c(Cl)c3)n2)c1', 'PLK2', 0),
  ('Nc1ncc(-c2ccc3nccc(-c4ccncc4)c3c2)cc1S(=O)(=O)N1CCOCC1', 'PLK2', 0),
  ('Cc1ccc(S(=O)(=O)Nc2ccc(Nc3nccc(Nc4cccc5[nH]ncc45)n3)cc2)cc1', 'PLK2', 0),
  ('CC(=O)Nc1nc2cnc(Nc3cc(NC(=O)c4cccc(C5(C#N)CC5)c4Cl)ccc3C)nc2s1', 'PLK2', 4),
  ('O=C(Nc1cccc(-c2nn3ccccc3c2-c2ccnc(Nc3cccc(F)c3)n2)c1)c1c(F)ccc(F)c1Cl', 'PLK2', 0),
  ('COc1ccc(CNC(=O)NC2CCN(c3ccnc(Nc4ccc(F)cc4)n3)CC2)cc1', 'PLK2', 0),
  ('Nc1n[nH]c2cnc(-c3ccccc3)cc12', 'PLK2', 49),
  ('COc1cc(Nc2ncc3c(C)nc(-c4cc5ccccc5[nH]4)n3n2)cc(OC)c1OC', 'PLK2', 23),
  ('CCCCc1nn2ncccc2c1-c1ccnc(Nc2ccc(N3CCN(C)CC3)cc2)n1', 'PLK2', 0),
  ('CN(c1ccc(NC(=O)Nc2cc(C(F)(F)F)ccc2F)cc1)c1ccnc(Nc2ccc(S(N)(=O)=O)cc2)n1', 'PLK2', 54),
  ('c1ccc(-c2cnc3nccnn23)cc1', 'PLK2', 0),
  ('Cl.Cl.NCC(NC(=O)c1cc(-c2ccccc2)c(-c2ccnc3[nH]ccc23)s1)c1ccccc1 (stereo not drawn)', 'PLK2', 30),
  ('CC(=O)N1CCN(c2ccc(Nc3nccc(-c4sc(C(C)C)nc4-c4cccc(NS(=O)(=O)c5cccc(Cl)c5)c4)n3)cn2)CC1', 'PLK2', 5),
  ('Cc1occc1-c1ncc(OC[C@@H](N)Cc2c[nH]c3ccccc23)cc1-c1ccc2[nH]nc(C)c2c1.O=C(O)C(F)(F)F', 'PLK2', 0),
  ('COc1cc2c(cc1OCCN1CCNCC1)ncc1c3ccc(C#N)cc3[nH]c21', 'PLK2', 22),
  ('CN1CCN(CCCNc2nccc(-c3c(-c4ccc(F)cc4)nn4cc(C(F)(F)F)ccc34)n2)CC1', 'PLK2', 0),
  ('O=C(Nc1ccccc1F)NC1CCN(c2ccnc(Nc3ccc(F)cc3)n2)CC1', 'PLK2', 0),
  ('COC(=O)Nc1nc2ccc(Oc3ccc(NC(=O)Nc4cc(C(F)(F)F)ccc4F)cc3)cc2n1C.Cl', 'PLK2', 0),
  ('O=c1[nH]cc(-c2ccc(N3CCOCC3)cc2)c2sc(-c3cn[nH]c3)cc12', 'PLK2', 18),
  ('CCS(=O)(=O)c1ccc(OC)c(Nc2nccc(-c3c(-c4cccc(NC(=O)c5c(F)cccc5F)c4)nn4ncccc34)n2)c1', 'PLK2', 0),
  ('COc1cc(Nc2nccc(N3CCC(NC(=O)c4cc5ccccc5s4)C3)n2)cc(OC)c1OC (stereo not drawn)', 'PLK2', 0),
  ('CCc1ccc(-c2ccc3c(c2)-c2c(cnn2C)S(=O)(=O)N3C)cc1', 'PLK2', 4),
  ('Oc1cc(Nc2ccnc3cc(I)ccc23)ccc1F', 'PLK2', 0),
  ('Cc1cccc(NC(=O)Nc2ccc(Oc3ncnc4ccn(C)c34)cc2)c1', 'PLK2', 0),
  ('O=C(Nc1n[nH]c2nc(-c3ccc(O)cc3)ccc12)C1CC1', 'PLK2', 10);
